tested on: B1R receptor of the rat (bradykinin 1 receptor) (Rattus norvegicus, UniProt P97583)
Construct: host or cells: CHO K1 cells (rB1R cells)
Sequence (P97583 whole entry): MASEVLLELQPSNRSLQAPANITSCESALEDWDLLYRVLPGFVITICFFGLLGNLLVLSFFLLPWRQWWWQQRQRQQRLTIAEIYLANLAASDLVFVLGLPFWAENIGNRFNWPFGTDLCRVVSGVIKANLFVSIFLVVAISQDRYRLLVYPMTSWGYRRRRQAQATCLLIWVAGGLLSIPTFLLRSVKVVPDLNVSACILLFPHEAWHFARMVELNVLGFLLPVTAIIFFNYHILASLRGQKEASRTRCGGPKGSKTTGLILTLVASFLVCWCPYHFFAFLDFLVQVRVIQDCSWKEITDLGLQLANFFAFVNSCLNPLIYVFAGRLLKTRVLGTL
assay summary: FLIPR Ca2+ assay (Fluo-4) on CHO K1 cells stably transfected with the B1R gene of the rat; % activation and % inhibition at 10 μM
Type: cell-based
details: CHO-K1, test substance 10 μM; CHO K1 rB1R cells; Ca2+ inflow after 100 nM Des-Arg9-bradykinin; read-out: B1R antagonism, rat [10 μM] % inhibition
assay readout: inhibition at 10 µM (%)

> print(dat)
                                   molecule        assay.readout  unit.symbol  assay.value
1  Cc1cc(S(=O)(=O)N(C)CCOCC(=O)N2CCC(O)(c3cccc(C(F)(F)F)c3)CC2)c(C)cc1Cl [Example 154]  inhibition at 10 µM            %         96.4
2  COc1cc(C)c(S(=O)(=O)N(CCOCC(=O)N2CCC(O)(c3ccc(Br)cc3)CC2)CC(C)C)c(C)c1C [Example 210]  inhibition at 10 µM            %          101
3  O=C(COCC1CCCN1S(=O)(=O)c1c(Cl)cc(C(F)(F)F)cc1Cl)N1CCC(O)(c2ccccc2)CC1 (centres unmarked) [Example 168]  inhibition at 10 µM            %          104
4  O=C(COCC1CCCCN1S(=O)(=O)c1cccc2ccccc12)N1CCC(O)(c2ccc(Cl)cc2)CC1 (centres unmarked) [Example 63]  inhibition at 10 µM            %         91.8
5  COc1cc(C)c(S(=O)(=O)N2CCCCC2COCC(=O)N2CCC(O)(c3cccnc3)CC2)c(C)c1 (centres unmarked) [Example 127]  inhibition at 10 µM            %          101
